Experiment: Plasma pharmacokinetics after single
Type: in vivo, Japanese patients
Conditions: human, plasma, oral, 30 mg, Tmax, single dose (D-9), N 3, median (min, max)
measured metric: Tmax (h)
Could you give me the number in h? Just the number is fine.

Looking up COc1cc2ncnc(Nc3ccc(F)c(Cl)c3)c2cc1NC(=O)/C=C/CN1CCCCC1 , I see its Tmax listed as 8

###

Test: Plasma pharmacokinetics after single
Assay type: in vivo, Japanese patients
Details: human, plasma, po, median Tmax, single oral dose (D-9), range over the dose range of 15–45 mg
measured metric: Tmax

Looking up COc1cc2ncnc(Nc3ccc(F)c(Cl)c3)c2cc1NC(=O)/C=C/CN1CCCCC1 , I see its Tmax listed as 6 to 24 h

###

Assay: Plasma pharmacokinetics after single
Type: in vivo, Japanese patients
Conditions: human, plasma, oral, 30 mg, Tmax, multiple dose (C1D14), 30 mg QD, N 3, median (min, max)
measured metric: Tmax (h)
Could you give me the number in h? Just the number is fine.

Looking up COc1cc2ncnc(Nc3ccc(F)c(Cl)c3)c2cc1NC(=O)/C=C/CN1CCCCC1 , I see its Tmax listed as 4

###

Test: Plasma pharmacokinetics after single
Assay type: in vivo, Japanese patients
Conditions: human, plasma, oral, 45 mg
measured metric: half-life (h)
Could you give me the number in h? Just the number is fine.

Looking up COc1cc2ncnc(Nc3ccc(F)c(Cl)c3)c2cc1NC(=O)/C=C/CN1CCCCC1 , I see its half-life listed as 80

###

Assay: Plasma pharmacokinetics after single
Assay type: in vivo, Japanese patients
Settings: human, plasma, oral, 15 mg, Tmax, multiple dose (C1D14), 15 mg QD, N 2, median (min, max)
measured metric: Tmax (h)
Could you give me the number in h? Just the number is fine.

Looking up COc1cc2ncnc(Nc3ccc(F)c(Cl)c3)c2cc1NC(=O)/C=C/CN1CCCCC1 , I see its Tmax listed as 15

###

Assay: Plasma pharmacokinetics after single
Format: in vivo, Japanese patients
Details: human, plasma, oral, 45 mg, Tmax, multiple dose (C1D14), 45 mg QD, N 6, median (min, max)
measured metric: Tmax (h)
Could you give me the number in h? Just the number is fine.

Looking up COc1cc2ncnc(Nc3ccc(F)c(Cl)c3)c2cc1NC(=O)/C=C/CN1CCCCC1 , I see its Tmax listed as 8

###

Assay: Plasma pharmacokinetics after single
Type: in vivo, Japanese patients
Details: human, plasma, oral, 30 mg, Cmax, single dose (D-9), N 3, mean (%CV)
measured metric: Cmax (ng/mL)
Could you give me the number in ng/mL? Just the number is fine.

Looking up COc1cc2ncnc(Nc3ccc(F)c(Cl)c3)c2cc1NC(=O)/C=C/CN1CCCCC1 , I see its Cmax listed as 12.2

###

Assay: Plasma pharmacokinetics after single
Format: in vivo, Japanese patients
Details: human, plasma, oral, 45 mg, Cmax, multiple dose (C1D14), 45 mg QD, N 6, mean (%CV)
measured metric: Cmax

Looking up COc1cc2ncnc(Nc3ccc(F)c(Cl)c3)c2cc1NC(=O)/C=C/CN1CCCCC1 [dacomitinib, Dacomitinib] , I see its Cmax listed as 81.2 ng/mL

###

Assay: Plasma pharmacokinetics after single
Format: in vivo, Japanese patients
Settings: human, plasma, oral, 15 mg, Cmax, single dose (D-9), N 3, mean (%CV)
measured metric: Cmax (ng/mL)
Could you give me the number in ng/mL? Just the number is fine.

Looking up COc1cc2ncnc(Nc3ccc(F)c(Cl)c3)c2cc1NC(=O)/C=C/CN1CCCCC1 [dacomitinib, Dacomitinib] , I see its Cmax listed as 8
